Tested on: 135F2 (fetal-II hepatoblastoma organoid with high liver markers)
Protocol: area under the viability dose-response curve (AUC) (AUC (arbitrary units, max 500 = no viability loss)); higher = less sensitive (higher viability)
Recorded conditions: exposure time: 120 h; concentration range: 0.1 nM - 10 µM, 6 doses
Measured area under the viability dose-response curve by item
Measurement name: area under the viability dose-response curve

Compound	Reported
C[C@@H](NC(=O)c1ncnc(N)c1Cl)c1ncc(C(=O)Nc2cc(C(F)(F)F)c(Cl)cn2)s1 [TAK-580]	449
Nc1cc(F)ccc1NC(=O)c1ccc(CNC(=O)/C=C/c2cccnc2)cc1 [Tucidinostat]	443
CO[C@H]1C[C@@H]2CC[C@@H](C)[C@@](O)(O2)C(=O)C(=O)N2CCCC[C@H]2C(=O)O[C@H]([C@H](C)C[C@@H]2CC[C@@H](OC(=O)C(C)(CO)CO)[C@H](OC)C2)CC(=O)[C@H](C)/C=C(\C)[C@@H](O)[C@@H](OC)C(=O)[C@H](C)C[C@H](C)/C=C/C=C/C=C/1C [Temsirolimus]	469
COCCOc1cnc2ccn([C@H](C)c3nnc4c(F)cc(-c5cnn(C)c5)cn34)c(=O)c2c1 [AMG 337]	488
CNC(=O)c1ccc(-c2cnc3ncc(Cc4ccc5ncccc5c4)n3n2)cc1F [Capmatinib]	491
CC(C)(C)c1nc(-c2cccc(NS(=O)(=O)c3c(F)cccc3F)c2F)c(-c2ccnc(N)n2)s1 [Dabrafenib]	471

* * *

System: 13F2 (fetal-II hepatoblastoma organoid with high liver markers)
Protocol: area under the viability dose-response curve (AUC) (AUC (arbitrary units, max 500 = no viability loss)); higher = less sensitive (higher viability)
Recorded conditions: exposure time: 120 h; concentration range: 0.1 nM - 10 µM, 6 doses
Could you mark each record True if its area under the viability dose-response curve falls strictly under 400, and False if it equals or exceeds it?

Compound	Target system	Discrete label
CC1(C)CCC(CN2CCN(c3ccc(C(=O)NS(=O)(=O)c4ccc(NCC5CCOCC5)c([N+](=O)[O-])c4)c(Oc4cnc5[nH]ccc5c4)c3)CC2)=C(c2ccc(Cl)cc2)C1	13F2	False
CC(C)(C)c1cc(NC(=O)Nc2ccc(-c3cn4c(n3)sc3cc(OCCN5CCOCC5)ccc34)cc2)no1	13F2	False
C[C@@H]1CN(CC(=O)Nc2ccc3c(c2)Cc2cccc(-c4cc(=O)cc(N5CCOCC5)o4)c2S3)C[C@H](C)O1	13F2	False
Cc1nc(Nc2ncc(C(=O)Nc3c(C)cccc3Cl)s2)cc(N2CCN(CCO)CC2)n1	13F2	True
COCC1(CO)C(=O)C2CCN1CC2 (stereo not given)	13F2	False
CC[C@]1(O)C[C@@H]2CN(CCc3c([nH]c4ccccc34)[C@@](C(=O)OC)(c3cc4c(cc3OC)N(C)[C@H]3[C@@](O)(C(=O)OC)[C@H](OC(C)=O)[C@]5(CC)C=CCN6CC[C@]43[C@@H]65)C2)C1	13F2	True
S=P(N1CC1)(N1CC1)N1CC1	13F2	False
CNC(=O)CN1CCC(Oc2cc3c(Nc4cccc(Cl)c4F)ncnc3cc2OC)CC1	13F2	True
O=C1NC(=O)[C@@H](c2cn3c4c(cccc24)CCC3)[C@@H]1c1c[nH]c2ccccc12 [Tivantinib]	13F2	True
O=C(O)C1(C(=O)O)CCC1.[NH2-].[NH2-].[Pt+2]	13F2	False
C[C@H](NC(=O)CCC(F)(F)F)C(=O)N[C@@H]1C(=O)N(CCO)c2ncccc2-c2ccccc21	13F2	False

All values here come from the supplement of paper PMC11579375.
